Source: patent US8148423B2

protocol description: Absorption spectra of rhodol fluorophores in phosphate buffer
Format: physicochemical
condition context: 50 mM aqueous phosphate buffer at pH about 8.0, 25° C.
Method: The photophysical properties of the rhodol fluorophores in Table 1 were measured according to the procedures disclosed herein and are summarized in Table 1. […] Absorbance solutions were prepared by further diluting the stock solution with 50 mM of potassium phosphate buffer at pH 8.0. Absorption spectra were recorded on a CARY 50 Bio UV-Visible spectrophotometer (obtainable from Varian Incorporation, Palo Alto, Calif.) under the control of a PC running the manufacturer supplied software package. […]
experimental readout: Abs Max (nm)

CCCCN(CCCC)c1ccc2c(c1)Oc1cc(O)ccc1C21OC(=O)c2ccccc21 (stereo not drawn)
525
Nc1ccc2c(c1)Oc1cc(O)ccc1C21OC(=O)c2ccccc21 (stereo not drawn)
493
CCCCNc1ccc2c(c1)Oc1cc(O)ccc1C21OC(=O)c2ccccc21 (stereo not drawn)
508
O=C1OC2(c3ccc(O)cc3Oc3cc(Nc4ccccc4)ccc32)c2ccccc21 (stereo not drawn)
513
O=C1OC2(c3ccc(O)cc3Oc3cc(NCc4ccccc4)ccc32)c2ccccc21 (stereo not drawn)
503
CN(C)c1ccc2c(c1)Oc1cc(O)ccc1C21OC(=O)c2ccccc21 (stereo not drawn)
518
